Target: EZH2 (Homo sapiens (Human))
Test: PRC2 enzyme assay on peptide substrates
Assay type: biochemical
Conditions: PRC2 enzyme assays on peptide substrates; 4 nM enzyme, 30 min preincubation at 25° C.; read-out: EZH2 IC50

[
  {
    "compound": "Cc1cc(C)c(CNC(=O)c2cc(N3CCN(C)CC3)nc3c2cnn3C(C)C)c(=O)[nH]1 [Compound B-9]",
    "IC50": "1000 to 3000 nM"
  },
  {
    "compound": "Cc1cc(C)c(CNC(=O)c2cc(C3=CCN(CCO)CC3)cc3c2cnn3C2CCCC2)c(=O)[nH]1 [Compound D-95]",
    "IC50": "< 300 nM"
  },
  {
    "compound": "Cc1cc(CN(C)C)c(CNC(=O)c2cc(Br)cc3c2cnn3C2CCCC2)c(=O)[nH]1 [Compound D-17]",
    "IC50": "< 300 nM"
  },
  {
    "compound": "Cc1cc(C)c(CNC(=O)c2cc(CO)nc3c2cnn3C(C)C)c(=O)[nH]1 [Compound B-113]",
    "IC50": "1000 to 3000 nM"
  },
  {
    "compound": "Cc1cc(C)c(CNC(=O)c2cc(C3CCN(C(=O)CN(C)C)CC3)nc3c2cnn3C(C)C)c(=O)[nH]1 [Compound B-57]",
    "IC50": "300 to 1000 nM"
  },
  {
    "compound": "C=Cc1cc(C(=O)NCc2c(C)cc(C)[nH]c2=O)c2cnn(C(C)C)c2n1 [Compound B-97]",
    "IC50": "1000 to 3000 nM"
  },
  {
    "compound": "Cc1cc(C)c(CNC(=O)c2cc(C3CCN(CCO)CC3)cc3c2cnn3C2CCCC2)c(=O)[nH]1 [Compound D-97]",
    "IC50": "< 300 nM"
  },
  {
    "compound": "CCc1nn(C(C)C)c2nc(C3=CC(C)(C)NC(C)(C)C3)cc(C(=O)NCc3c(C)cc(C)[nH]c3=O)c12 [Compound B-26]",
    "IC50": "300 to 1000 nM"
  },
  {
    "compound": "Cc1cc(C)c(CNC(=O)c2cc(N3CCC(N4CCOCC4)CC3)nc3c2cnn3C(C)C)c(=O)[nH]1 [Compound B-87]",
    "IC50": "1000 to 3000 nM"
  },
  {
    "compound": "Cc1cc(C)c(CNC(=O)c2cc(-c3ccc(CN(C)CCCN(C)C)cc3)nc3c2cnn3C(C)C)c(=O)[nH]1 [Compound A-15]",
    "IC50": "< 300 nM"
  },
  {
    "compound": "Cc1cc(C)c(CNC(=O)c2cc(Br)cc3c2cnn3C2CCN(C(=O)C3CCCCC3)CC2)c(=O)[nH]1 [Compound D-27]",
    "IC50": "300 to 1000 nM"
  },
  {
    "compound": "Cc1cc(C)c(CNC(=O)c2cc(Br)cc3c2cnn3C2CN(C(=O)C(C)(C)C)C2)c(=O)[nH]1 [Compound D-36]",
    "IC50": "1000 to 3000 nM"
  },
  {
    "compound": "Cc1cc(C)c(CNC(=O)c2cc(Br)cc3c2cnn3C2CCN(C(=O)CN(C)C)CC2)c(=O)[nH]1 [Compound D-29]",
    "IC50": "300 to 1000 nM"
  },
  {
    "compound": "Cc1cc(C)c(CNC(=O)c2cc(C3=CC(C)(C)NC(C)(C)C3)nc3c2cnn3CCN(C)C)c(=O)[nH]1 [Compound B-152]",
    "IC50": "10000 to 50000 nM"
  },
  {
    "compound": "COCCNCc1cc(C(=O)NCc2c(C)cc(C)[nH]c2=O)c2cnn(C3CCCC3)c2c1 [Compound D-73]",
    "IC50": "1000 to 3000 nM"
  }
]

###

Target: EZH2 (Homo sapiens (Human), UniProt Q15910)
Sequence (Q15910 other isoform, or with tags, fused parts or gaps): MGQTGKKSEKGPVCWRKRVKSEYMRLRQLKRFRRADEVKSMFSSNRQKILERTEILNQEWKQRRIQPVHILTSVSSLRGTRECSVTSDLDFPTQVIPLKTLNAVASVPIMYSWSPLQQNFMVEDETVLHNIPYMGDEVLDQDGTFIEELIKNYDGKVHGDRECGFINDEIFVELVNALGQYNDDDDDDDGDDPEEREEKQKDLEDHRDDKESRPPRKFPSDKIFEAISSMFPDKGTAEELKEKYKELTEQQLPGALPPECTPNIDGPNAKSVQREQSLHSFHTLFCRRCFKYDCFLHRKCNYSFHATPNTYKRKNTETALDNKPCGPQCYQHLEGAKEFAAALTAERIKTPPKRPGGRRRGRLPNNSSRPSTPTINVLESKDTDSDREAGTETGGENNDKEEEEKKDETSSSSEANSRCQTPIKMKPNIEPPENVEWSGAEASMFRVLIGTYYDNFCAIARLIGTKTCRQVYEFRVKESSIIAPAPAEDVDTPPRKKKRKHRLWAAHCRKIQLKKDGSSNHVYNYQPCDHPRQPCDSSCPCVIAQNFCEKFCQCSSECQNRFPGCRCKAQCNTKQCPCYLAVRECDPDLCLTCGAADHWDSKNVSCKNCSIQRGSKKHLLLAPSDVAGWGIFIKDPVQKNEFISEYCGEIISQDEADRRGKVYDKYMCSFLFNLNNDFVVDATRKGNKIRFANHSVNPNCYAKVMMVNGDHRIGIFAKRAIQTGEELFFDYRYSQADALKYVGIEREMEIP
Sequence (O75530 whole entry partner): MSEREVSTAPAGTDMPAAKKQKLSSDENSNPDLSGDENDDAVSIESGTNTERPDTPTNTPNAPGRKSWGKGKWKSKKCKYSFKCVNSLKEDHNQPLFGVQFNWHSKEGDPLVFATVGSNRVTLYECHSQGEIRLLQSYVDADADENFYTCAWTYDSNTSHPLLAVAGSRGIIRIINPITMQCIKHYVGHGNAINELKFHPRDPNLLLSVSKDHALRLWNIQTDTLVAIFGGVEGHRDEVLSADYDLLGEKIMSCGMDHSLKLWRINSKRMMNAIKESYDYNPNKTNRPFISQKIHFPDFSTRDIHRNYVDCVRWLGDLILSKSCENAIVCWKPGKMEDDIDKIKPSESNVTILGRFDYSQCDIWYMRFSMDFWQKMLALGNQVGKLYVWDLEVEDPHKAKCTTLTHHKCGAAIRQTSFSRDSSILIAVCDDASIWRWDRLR
Sequence (Q15022 whole entry partner): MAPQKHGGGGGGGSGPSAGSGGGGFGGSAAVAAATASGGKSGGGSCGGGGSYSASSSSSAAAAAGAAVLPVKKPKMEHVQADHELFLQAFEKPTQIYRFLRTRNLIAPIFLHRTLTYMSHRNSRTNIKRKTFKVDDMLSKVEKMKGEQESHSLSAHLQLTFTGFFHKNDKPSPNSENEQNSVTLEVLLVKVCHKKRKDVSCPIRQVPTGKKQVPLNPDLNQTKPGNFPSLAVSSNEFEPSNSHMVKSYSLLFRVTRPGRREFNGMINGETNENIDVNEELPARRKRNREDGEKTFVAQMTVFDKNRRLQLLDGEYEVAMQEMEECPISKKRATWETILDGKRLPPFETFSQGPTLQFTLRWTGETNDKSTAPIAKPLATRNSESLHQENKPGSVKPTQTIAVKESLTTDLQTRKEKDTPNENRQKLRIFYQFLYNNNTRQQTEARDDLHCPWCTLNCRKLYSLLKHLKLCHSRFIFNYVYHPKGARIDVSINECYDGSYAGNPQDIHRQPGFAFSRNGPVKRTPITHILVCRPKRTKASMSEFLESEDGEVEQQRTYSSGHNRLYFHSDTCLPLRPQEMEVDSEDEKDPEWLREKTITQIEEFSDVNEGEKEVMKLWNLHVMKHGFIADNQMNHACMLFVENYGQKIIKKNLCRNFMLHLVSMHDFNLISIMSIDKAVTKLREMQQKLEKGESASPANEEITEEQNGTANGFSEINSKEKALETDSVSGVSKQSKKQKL
Sequence (Q09028 whole entry partner): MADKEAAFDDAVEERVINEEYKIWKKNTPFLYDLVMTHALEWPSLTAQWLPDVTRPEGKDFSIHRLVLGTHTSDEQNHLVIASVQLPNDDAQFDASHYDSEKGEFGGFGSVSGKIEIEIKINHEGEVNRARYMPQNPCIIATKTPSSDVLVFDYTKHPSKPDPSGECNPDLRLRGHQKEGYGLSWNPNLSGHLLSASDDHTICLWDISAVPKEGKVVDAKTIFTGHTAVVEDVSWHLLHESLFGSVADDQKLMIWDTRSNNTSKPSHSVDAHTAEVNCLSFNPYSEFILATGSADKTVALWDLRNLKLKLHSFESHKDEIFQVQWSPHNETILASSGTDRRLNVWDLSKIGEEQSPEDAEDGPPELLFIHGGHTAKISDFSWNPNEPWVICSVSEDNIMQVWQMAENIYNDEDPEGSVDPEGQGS
Assay: PRC2 enzyme assay on peptide substrates
Format: biochemical
Conditions: PRC2 enzyme assays on peptide substrates; 4 nM enzyme, 30 min preincubation at 25° C.; read-out: EZH2 IC50

[
  {
    "molecule": "Cc1cc(C)c(CNC(=O)c2cc(-c3cccc(C(=O)O)c3)nc3c2cnn3C(C)C)c(=O)[nH]1 [Compound A-67]",
    "IC50": "1000 to 3000 nM"
  },
  {
    "molecule": "Cc1cc(C)c(CNC(=O)c2ccnc3c2cnn3C(C)C)c(=O)[nH]1 [Compound B-127]",
    "IC50": "3000 to 10000 nM"
  },
  {
    "molecule": "Cc1cc(C)c(CNC(=O)c2cc(C3=CCN(C(=O)CCN)CC3)nc3c2cnn3C(C)C)c(=O)[nH]1 [Compound B-49]",
    "IC50": "300 to 1000 nM"
  },
  {
    "molecule": "Cc1cc(C)c(CNC(=O)c2cc(C3CCN(CCS(C)(=O)=O)CC3)nc3c2cnn3C(C)C)c(=O)[nH]1 [Compound B-83]",
    "IC50": "300 to 1000 nM"
  },
  {
    "molecule": "Cc1cc(C)c(CNC(=O)c2cc(C3=CCN(C(=O)CN(C)C)CC3)cc3c2cnn3C2CCCC2)c(=O)[nH]1 [Compound D-38]",
    "IC50": "< 300 nM"
  },
  {
    "molecule": "Cc1cc(COCCCN(C)C)c(CNC(=O)c2cccc3c2cnn3C2CCCC2)c(=O)[nH]1 [Compound D-86]",
    "IC50": "3000 to 10000 nM"
  },
  {
    "molecule": "Cc1cc(CN(C)CCCN(C)C)c(CNC(=O)c2cc(Br)cc3c2cnn3C2CCCC2)c(=O)[nH]1 [Compound D-62]",
    "IC50": "300 to 1000 nM"
  },
  {
    "molecule": "Cc1cc(C)c(CNC(=O)c2cc(Br)cc3c2cnn3C2CCN(C3CCN(C)CC3)CC2)c(=O)[nH]1 [Compound D-16]",
    "IC50": "< 300 nM"
  },
  {
    "molecule": "Cc1cc(C)c(CNC(=O)c2cc(N3CCC(N4CCN(C(=O)OC(C)(C)C)CC4)CC3)nc3c2cnn3C(C)C)c(=O)[nH]1 [Compound B-108]",
    "IC50": "1000 to 3000 nM"
  },
  {
    "molecule": "Cc1cc(C)c(CNC(=O)c2cc(C3CCN(C4CCN(CCS(C)(=O)=O)CC4)CC3)nc3c2cnn3C(C)C)c(=O)[nH]1 [Compound B-55]",
    "IC50": "300 to 1000 nM"
  },
  {
    "molecule": "Cc1cc(C)c(CNC(=O)c2cc(C3=CC(C)(C)NC(C)(C)C3)nc3c2cnn3CC2CC2)c(=O)[nH]1 [Compound B-130]",
    "IC50": "3000 to 10000 nM"
  },
  {
    "molecule": "Cc1cc(C)c(CNC(=O)c2cc(-c3cccc(COCCN)c3)cc3c2cnn3C2CCCC2)c(=O)[nH]1 [Compound C-23]",
    "IC50": "< 300 nM"
  },
  {
    "molecule": "Cc1cc(C)c(CNC(=O)c2cc(C3=CC(C)(C)NC(C)(C)C3)nc3c2cnn3C2CCN(C)CC2)c(=O)[nH]1 [Compound B-116]",
    "IC50": "1000 to 3000 nM"
  },
  {
    "molecule": "Cc1cc(C)c(CNC(=O)c2cc(N3CCCCC3)nc3c2cnn3C(C)C)c(=O)[nH]1 [Compound B-115]",
    "IC50": "1000 to 3000 nM"
  }
]

###

Biological target: EZH2 (Homo sapiens (Human))
Assay: PRC2 enzyme assay on peptide substrates
Type: biochemical
Conditions: PRC2 enzyme assays on peptide substrates; 4 nM enzyme, 30 min preincubation at 25° C.; read-out: EZH2 IC50
pIC50: −log10 of the molar value.
measurement-kind: pIC50

[
  {
    "compound": "Cc1cc(C)c(CNC(=O)c2cc(C3=CCOCC3)nc3c2cnn3C(C)C)c(=O)[nH]1",
    "measurement-kind": "pIC50",
    "result": "6.00 to 6.52"
  },
  {
    "compound": "Cc1cc(COCCCN(C)C)c(CNC(=O)c2cc(Br)cc3c2cnn3C2CCCC2)c(=O)[nH]1",
    "measurement-kind": "pIC50",
    "result": "4.30 to 5.00"
  },
  {
    "compound": "Cc1cc(C)c(CNC(=O)c2cc(CN(C)CCCN(C)C)cc3c2cnn3C2CCCC2)c(=O)[nH]1",
    "measurement-kind": "pIC50",
    "result": "6.00 to 6.52"
  },
  {
    "compound": "Cc1cc(C)c(CNC(=O)c2cc(C3=CC(C)(C)NC(C)(C)C3)nc3c2cnn3C2CCNCC2)c(=O)[nH]1",
    "measurement-kind": "pIC50",
    "result": "5.52 to 6.00"
  },
  {
    "compound": "C=C(C)c1cc(C(=O)NCc2c(C)cc(C)[nH]c2=O)c2cnn(C(C)C)c2n1",
    "measurement-kind": "pIC50",
    "result": "5.52 to 6.00"
  },
  {
    "compound": "Cc1cc(CO)c(CNC(=O)c2cccc3c2cnn3C2CCCC2)c(=O)[nH]1",
    "measurement-kind": "pIC50",
    "result": "4.30 to 5.00"
  },
  {
    "compound": "Cc1cc(C)c(CNC(=O)c2cc(-c3ccc(N4CCN(C(=O)OC(C)(C)C)CC4)nc3)nc3c2cnn3C(C)C)c(=O)[nH]1 [Compound A-44]",
    "measurement-kind": "pIC50",
    "result": "6.00 to 6.52"
  }
]
